target: Sphingosine 1-phosphate receptor 1 (Homo sapiens); assay: Inhibition of [33P]-S1P binding to human Sphingosine 1-phosphate receptor 1 expressed on CHO cell membranes
Sequence (P21453 whole entry): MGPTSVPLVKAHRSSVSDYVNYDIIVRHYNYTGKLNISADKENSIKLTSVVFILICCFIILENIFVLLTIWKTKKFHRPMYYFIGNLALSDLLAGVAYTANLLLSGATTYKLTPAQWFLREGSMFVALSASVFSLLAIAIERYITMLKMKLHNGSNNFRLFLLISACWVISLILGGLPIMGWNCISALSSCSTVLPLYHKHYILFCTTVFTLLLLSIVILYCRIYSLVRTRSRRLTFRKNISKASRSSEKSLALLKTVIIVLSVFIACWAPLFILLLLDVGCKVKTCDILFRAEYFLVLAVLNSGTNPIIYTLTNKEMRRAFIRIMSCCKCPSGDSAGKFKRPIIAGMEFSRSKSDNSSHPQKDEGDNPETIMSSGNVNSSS
compounds and their reported IC50
Express your answer in nM, writing the number without its unit.

Here is how some compounds turned out for IC50.
compound: CCCCCCCCCCCCCCN1CCC(O)(P(=O)(O)O)C1 (stereo not drawn)
recorded-metric: IC50
units-of-measure: nM
measured-number: 49

compound: CCCCCCCCCCCCCC[C@H]1CC[C@H](CCP(=O)(O)O)N1
recorded-metric: IC50
units-of-measure: nM
measured-number: 6.9

// fetch Sphingosine 1-phosphate receptor 1 (Homo sapiens) IC50 for CCCCCCCCCc1ccc(C2CCC(CCP(=O)(O)O)N2)cc1 (trans isomer) 0.1

* * *

molecular target: UniProt Q99500; assay: Inhibition of [33P]-S1P binding to human Sphingosine 1-phosphate receptor 3 expressed on CHO cell membranes
Sequence (Q99500 whole entry): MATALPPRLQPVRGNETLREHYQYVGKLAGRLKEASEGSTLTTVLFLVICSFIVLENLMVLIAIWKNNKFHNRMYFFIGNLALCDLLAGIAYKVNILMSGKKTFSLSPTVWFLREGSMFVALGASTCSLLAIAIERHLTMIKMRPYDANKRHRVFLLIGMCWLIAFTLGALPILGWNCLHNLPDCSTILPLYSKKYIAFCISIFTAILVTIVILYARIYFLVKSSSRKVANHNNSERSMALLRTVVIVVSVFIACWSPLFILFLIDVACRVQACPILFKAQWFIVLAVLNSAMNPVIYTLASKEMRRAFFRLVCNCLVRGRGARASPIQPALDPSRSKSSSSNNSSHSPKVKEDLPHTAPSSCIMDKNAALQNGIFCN
recorded-metric: IC50 (nM)
Field format: number, assumed nM, no unit text.

compound: CCCCCCCCCCCCCCNC1CCCCC1CP(=O)(O)O (centres undefined)
recorded-metric: IC50
measured-number: 370
--
compound: CCCCCCCCCc1ccc(CN[C@H]2CCC[C@H](P(=O)(O)O)C2)cc1
recorded-metric: IC50
measured-number: 4.7
--
compound: CCCCCCCCCCCCCC1CCCC(CCP(=O)(O)O)N1 (stereo in doubt)
recorded-metric: IC50
measured-number: 8.2
--
compound: CCCCCCCCCCCCCCN1CCCC1CCP(=O)(O)O (centres undefined)
recorded-metric: IC50
measured-number: 190
--
compound: CCCCCCCCCCCCCC1CCCCN1CCCP(=O)(O)O (centres undefined)
recorded-metric: IC50
measured-number: 410
--
compound: CCCCCCCCCCCCCCC1CC(O)(P(=O)(O)O)CCN1 (centres undefined)
recorded-metric: IC50
measured-number: 220
--
compound: CCCCCCCCCCCCCCN1CCC(C(O)P(=O)(O)O)C1 (centres undefined)
recorded-metric: IC50
measured-number: 17
--
compound: CCCCCCCCCCCCCCNC1CCC(P(=O)(O)O)C1 (centres undefined)
recorded-metric: IC50
measured-number: 30
--
compound: CCCCCCCCCc1ccc(C2CCC(CCP(=O)(O)O)N2)cc1 (trans isomer)
recorded-metric: IC50
measured-number: 2.8
--
compound: CCCCCCCCCCCCCCN(C)CCCP(=O)(O)O
recorded-metric: IC50
measured-number: 9.8

Recorded IC50 for CCCCCCCCCc1ccc(CN2CCC(P(=O)(O)O)C2)cc1 (centres undefined) , please? 18

Fill blank: measured IC50 of the compound CCCCCCCCCCCCCC[C@H]1CC[C@H](CCP(=O)(O)O)N1 is ____. 5.2

* * *

# IC50 values compiled below
target: Sphingosine 1-phosphate receptor 5 (Homo sapiens, UniProt Q9H228); assay: Inhibition of [33P]-S1P binding to human Sphingosine 1-phosphate receptor 5 expressed on CHO cell membranes
Sequence (Q9H228 whole entry): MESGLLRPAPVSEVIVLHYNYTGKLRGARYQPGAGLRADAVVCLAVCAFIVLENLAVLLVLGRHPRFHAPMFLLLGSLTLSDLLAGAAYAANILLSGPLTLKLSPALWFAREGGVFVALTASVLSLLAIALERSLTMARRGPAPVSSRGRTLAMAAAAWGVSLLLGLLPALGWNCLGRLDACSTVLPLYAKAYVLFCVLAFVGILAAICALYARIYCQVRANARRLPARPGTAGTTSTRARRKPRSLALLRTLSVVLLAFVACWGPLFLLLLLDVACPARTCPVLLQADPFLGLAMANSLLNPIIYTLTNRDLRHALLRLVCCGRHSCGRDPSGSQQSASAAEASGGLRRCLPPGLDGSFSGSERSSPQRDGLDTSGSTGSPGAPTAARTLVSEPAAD
Reply with just the number (in nM).

compound: CCCCCCCCCCCCCCN1CCC(C(O)P(=O)(O)O)C1 (centres undefined)
IC50 / nM: 40
//
compound: CCCCCCCCCCCCCCN1CCCC1CCP(=O)(O)O (centres undefined)
IC50 / nM: 660
//
compound: CCCCCCCCCCCCCCC1CCCN1CCCP(=O)(O)O (centres undefined)
IC50 / nM: 680
//
compound: CCCCCCCCCCCCCCN(C)CCCP(=O)(O)O
IC50 / nM: 24
//
compound: CCCCCCCCCCCCCCN1CCC(O)(P(=O)(O)O)C1 (centres undefined)
IC50 / nM: 34
//
compound: CCCCCCCCCCCCCC1CCCC(CCP(C)(=O)O)N1 (trans isomer)
IC50 / nM: 61
//
compound: CCCCCCCCCc1ccc(C2CCC(CCP(=O)(O)O)N2)cc1 (trans isomer)
IC50 / nM: 0.58
//
compound: CCCCCCCCCCCCCC[C@H]1CC[C@H](CCP(=O)(O)O)N1
IC50 / nM: 17

Okay, now this compound:
Recorded IC50 for CCCCCCCCCCCCCCN1CCC(O)(P(=O)(O)O)CC1 with Sphingosine 1-phosphate receptor 5 (Homo sapiens, UniProt Q9H228), please? 270

Hey, just so you know, these numbers are from ChEMBL document CHEMBL1137868.
